- Measurement Target: human AMPK (full-length γ1, β1 and α1 subunits) (Homo sapiens (Human), UniProt Q13131+Q9Y478)
- Sequence (Q13131 whole entry): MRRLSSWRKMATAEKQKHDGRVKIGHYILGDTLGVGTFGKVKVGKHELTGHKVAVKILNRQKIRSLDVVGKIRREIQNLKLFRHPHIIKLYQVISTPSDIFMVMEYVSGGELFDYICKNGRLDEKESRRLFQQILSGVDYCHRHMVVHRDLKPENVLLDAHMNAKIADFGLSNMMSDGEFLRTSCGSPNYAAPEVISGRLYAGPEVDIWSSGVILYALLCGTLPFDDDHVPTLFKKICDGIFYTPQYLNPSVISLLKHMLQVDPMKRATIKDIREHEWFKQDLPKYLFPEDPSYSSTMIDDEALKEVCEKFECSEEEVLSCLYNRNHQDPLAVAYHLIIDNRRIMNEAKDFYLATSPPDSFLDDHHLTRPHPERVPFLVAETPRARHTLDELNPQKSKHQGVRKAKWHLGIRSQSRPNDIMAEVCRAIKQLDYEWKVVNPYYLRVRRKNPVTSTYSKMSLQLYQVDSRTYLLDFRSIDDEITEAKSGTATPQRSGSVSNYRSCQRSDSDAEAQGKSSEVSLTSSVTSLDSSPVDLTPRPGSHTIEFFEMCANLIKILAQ
- Sequence (Q9Y478 whole entry): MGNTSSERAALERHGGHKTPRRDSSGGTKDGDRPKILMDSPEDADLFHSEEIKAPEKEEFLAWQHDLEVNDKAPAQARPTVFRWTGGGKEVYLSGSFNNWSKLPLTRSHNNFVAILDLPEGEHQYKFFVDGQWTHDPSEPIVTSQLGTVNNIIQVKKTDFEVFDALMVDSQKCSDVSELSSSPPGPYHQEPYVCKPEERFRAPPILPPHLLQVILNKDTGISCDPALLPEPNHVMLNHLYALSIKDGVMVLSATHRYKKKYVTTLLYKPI
- Sequence (P54619 whole entry partner): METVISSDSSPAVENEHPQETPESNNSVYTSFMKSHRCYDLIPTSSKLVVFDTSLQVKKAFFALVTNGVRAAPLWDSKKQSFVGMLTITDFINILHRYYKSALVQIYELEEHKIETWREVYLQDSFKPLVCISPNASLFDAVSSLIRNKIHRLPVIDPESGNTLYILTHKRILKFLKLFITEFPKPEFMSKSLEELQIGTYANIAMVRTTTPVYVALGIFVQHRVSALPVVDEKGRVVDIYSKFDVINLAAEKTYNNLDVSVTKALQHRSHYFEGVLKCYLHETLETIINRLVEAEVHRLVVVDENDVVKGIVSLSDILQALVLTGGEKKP
- Test Protocol: AMPK in vitro biochemical assay (33P-based, SAMS peptide, PP2A dephosphorylation)
- Settings: counts as % of positive control wells (enzyme, allosteric activator or AMP, PP2A and substrate); read-out: Maximum
Measurement Label: Emax (%)

- O=C(O)c1n[nH]c2cc(Cl)c(-c3ccc4c(c3)CCC4)cc12: 104
- O=C(O)c1c[nH]c2cc(Cl)c(-c3ccc(OCC4COC4)cc3)cc12: 99
- COc1cc(C2(O)CCC2)ccc1-c1cc2c(C(=O)O)c[nH]c2cc1Cl: 74
- COc1cc(-c2cc3c(C(=O)O)c[nH]c3cc2Cl)ccc1C1(O)CCC1: 57
- N#Cc1cc2[nH]cc(C(=O)O)c2cc1-c1ccc(OCCO)cc1: 91
- O=S(=O)(O)c1c[nH]c2cc(Cl)c(-c3ccc(C4CCOCC4)cc3)cc12: 16
- O=C(O)c1n[nH]c2cc(Cl)c(-c3ccc(C4CCOC4)cc3)cc12 (racemic): 93
- COc1nc(N2CCC(OC)C2)ccc1-c1cc2c(C(=O)O)c[nH]c2cc1Cl (stereo in doubt) [Example 175]: 78.2

----------
- Measurement Target: human AMPK (full-length γ1, β1 and α1 subunits) (Homo sapiens (Human), UniProt Q13131+Q9Y478)
- Test Protocol: AMPK in vitro biochemical assay (33P-based, SAMS peptide, PP2A dephosphorylation)
- Settings: counts as % of positive control wells (enzyme, allosteric activator or AMP, PP2A and substrate); read-out: Maximum
Below, each of the compounds is paired with its reported Emax value.
Measurement Label: Emax (%)

• O=C(O)c1c[nH]c2cc(Cl)c(-c3ccc(N4CCCC4=O)cc3)cc12 [Example 64] = 82
• O=C(O)c1c[nH]c2cc(Cl)c(-c3ccc(OCCCN4CC[C@@H](F)C4)cc3)cc12 [Example 189] = 112
• O=C(O)c1n[nH]c2cc(Cl)c(-c3ccc(C4(CO)CCCC4)cc3)cc12 [Example 127] = 81
• COc1cc(-c2cc3c(C(=O)O)c[nH]c3cc2Cl)ccc1C1(O)COC1 [Example 60] = 65
• CC(=O)N1CC(COc2ccc(-c3cc4c(C(=O)O)c[nH]c4cc3Cl)cc2)C1 [Example 9] = 81
• CC(C)(CO)COc1ccc(-c2cc3c(C(=O)O)c[nH]c3cc2Cl)cc1 [Example 21] = 86
• O=C(O)c1c[nH]c2cc(Cl)c(-c3ccc(-c4ccccc4O)cc3)cc12 [Example 67] = 112
• O=C(O)c1c[nH]c2cc(F)c(-c3ccc(C4(CO)CC4)cc3)c(F)c12 [Example 22] = 122

----------
- Measurement Target: human AMPK (full-length γ1, β1 and α1 subunits) (Homo sapiens (Human), UniProt Q13131+Q9Y478)
- Test Protocol: AMPK in vitro biochemical assay (33P-based, SAMS peptide, PP2A dephosphorylation)
- Settings: activation of phosphorylated AMPK; 33P-ATP, SAMS peptide, PP2A treatment; 4-parameter fit
Threshold 90 nM: EC50 strictly smaller gives Fulfilled, otherwise Not fulfilled.

• O=C(O)c1c[nH]c2cc(Cl)c(-c3ccc(O[C@H]4CCCC[C@@H]4O)cc3)cc12 = Not fulfilled
• O=C(O)c1c[nH]c2cc(Cl)c(-c3ccc(OCC4COC4)cc3)cc12 = Fulfilled
• O=C(O)c1c[nH]c2cc(Cl)c(-c3ccc(C4CCOCC4)cc3)cc12 = Fulfilled
• O=C(O)c1c[nH]c2cc(Cl)c(-c3ccc(C4(C(=O)O)CC4)cc3)cc12 = Fulfilled
• COc1nc(N2CCC(OC)C2)ccc1-c1cc2c(C(=O)O)c[nH]c2cc1Cl (stereo in doubt) [Example 175] = Fulfilled
• O=C(O)c1c[nH]c2cc(Cl)c(-c3ccc(C4(C(=O)O)CCC4)cc3)cc12 = Not fulfilled
• CC(C)(CO)COc1ccc(-c2cc3c(C(=O)O)c[nH]c3cc2Cl)cc1 = Not fulfilled
• COc1nc(N2CCC(OC)C2)ccc1-c1cc2c(C(=O)O)c[nH]c2cc1Cl (stereo in doubt) [Example 176] = Fulfilled
